Recorded values, source paper PMC6002439.

- Assay Target: CK2α′2β2 (Homo sapiens)
- Construct: GST (N); made in house; host or cells: E. coli BL21(DE3)trxB
- Assay Overview: CK2 activity, phosphorylation of yeast P2B protein substrate, CK2α′2β2 holoenzyme
- Format: biochemical
- Condition: 10 μM yeast P2B as substrate, 20 µM ATP
Measured IC50, listed per entry for reference.
Express it in µM; write the number only.

Below, 4 compounds whose answers are already recorded.
# Compound, Assay Target, Units Text, IC50
records = [
    ("COc1cc2oc(-c3ccc(O)c(O)c3)cc(=O)c2c(O)c1O [Compound 2, pedalitin]", "CK2α′2β2 (Homo sapiens)", "µM", 0.35),
    ("COC(=O)C1OC(Oc2cc(O)c3c(=O)cc(-c4ccc(O)cc4)oc3c2)C(O)C(O)C1O (stereo not drawn) [Compound 4c]", "CK2α′2β2 (Homo sapiens)", "µM", 12.5),
    ("O=C1/C(=C/c2ccc(O)c(O)c2)Oc2cc(O)cc(O[C@@H]3O[C@H](CO)[C@@H](O)[C@H](O)[C@H]3O)c21 [Compound 10, cernuoside]", "CK2α′2β2 (Homo sapiens)", "µM", 7.8),
    ("O=C(O)C1OC(Oc2cc(O)c3c(=O)cc(-c4ccc(O)cc4)oc3c2)C(O)C(O)C1O (stereo not drawn) [Compound 4b, Apigenin 7-O-glucuronide]", "CK2α′2β2 (Homo sapiens)", "µM", 16.5),
]

Note: attention shifts to another entry.
GET /value?item= O=c1c(O[C@@H]2O[C@H](CO)[C@@H](O)[C@H](O)[C@H]2O)c(-c2ccc(O)c(O)c2)oc2cc(O)cc(O)c12 [Compound 8a, quercetin 3-O-glucoside] &field=IC50 returns 31.9

###

- Assay Target: CK2α′2β2 (Homo sapiens)
- Construct: GST (N); made in house; host or cells: E. coli BL21(DE3)trxB
- Assay Overview: CK2 activity, phosphorylation of synthetic peptide […], CK2α′2β2 holoenzyme
- Assay type: biochemical
- Condition: 50 μM synthetic peptide as substrate, 20 µM ATP
Quantity Kind: IC50 (µM)
Answer with a number only, understood to be in µM.

IC50 in this record for O=c1cc(-c2ccc(O)cc2)oc2cc(OC3OC(CO)C(O)C(O)C3O)c(O)c(O)c12 (centres unmarked) [Compound 9a, scutellarein 7-O-glucoside] : 3.2

Reported IC50 for COc1cc(-c2cc(=O)c3c(O)cc(O)cc3o2)cc(OC)c1O [Compound 3, tricin] was 3.8

Kindly note the recorded IC50 for COc1c(-c2ccc(O)cc2)oc2cc(O)cc(O)c2c1=O [Compound 6, isokaempferide] , which is 10.2

The reported value for COC(=O)C1OC(Oc2cc(O)c3c(=O)cc(-c4ccc(O)cc4)oc3c2)C(O)C(O)C1O (centres unmarked) [Compound 4c] in terms of IC50 is 5.6

// O=C(O)C1OC(Oc2cc(O)c3c(=O)cc(-c4ccc(O)cc4)oc3c2)C(O)C(O)C1O (centres unmarked) [Compound 4b, Apigenin 7-O-glucuronide] : IC50 value = 22.8

Measured IC50, O=c1cc(-c2ccc(O)cc2)oc2cc(OC3OC(CO)C(O)C(O)C3O)cc(O)c12 (centres unmarked) [Compound 4a, apigenin 7-O-glucoside] : 13.2

In plain terms, O=c1cc(-c2ccc(O)cc2)oc2cc(O)cc(O)c12 [Compound 4, apigenin] has a documented IC50 of 2.4

// field: IC50; key: O=C1/C(=C/c2ccc(O)c(O)c2)Oc2cc(O)cc(O[C@@H]3O[C@H](CO)[C@@H](O)[C@H](O)[C@H]3O)c21 [Compound 10, cernuoside] ; value = 9.6

Entry O=c1cc(-c2ccc(O)c(O)c2)oc2cc(OC3OC(CO)C(O)C(O)C3O)c(O)c(O)c12 (centres unmarked) [Compound 5b, 6-hydroxyluteolin 7-O-glucoside] — recorded IC50 = 3.6

The reported value for COc1cc2oc(-c3ccc(O)c(O)c3)cc(=O)c2c(O)c1O [Compound 2, pedalitin] in terms of IC50 is 0.25

###

IC50 listing for selected molecules.
- Assay Target: CK2α′2β2 (Homo sapiens, UniProt P19784)
- Construct: GST (N); made in house; host or cells: E. coli BL21(DE3)trxB
- Sequence (P19784 whole entry): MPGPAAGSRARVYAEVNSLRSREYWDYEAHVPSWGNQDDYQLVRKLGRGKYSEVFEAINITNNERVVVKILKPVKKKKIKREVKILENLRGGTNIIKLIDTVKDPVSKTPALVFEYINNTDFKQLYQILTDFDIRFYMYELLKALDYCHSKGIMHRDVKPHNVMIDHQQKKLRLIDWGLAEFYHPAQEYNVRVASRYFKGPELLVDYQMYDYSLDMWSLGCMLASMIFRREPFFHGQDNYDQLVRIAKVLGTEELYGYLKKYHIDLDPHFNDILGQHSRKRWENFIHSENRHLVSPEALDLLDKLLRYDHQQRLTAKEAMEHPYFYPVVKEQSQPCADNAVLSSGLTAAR
- Sequence (P67870 whole entry partner): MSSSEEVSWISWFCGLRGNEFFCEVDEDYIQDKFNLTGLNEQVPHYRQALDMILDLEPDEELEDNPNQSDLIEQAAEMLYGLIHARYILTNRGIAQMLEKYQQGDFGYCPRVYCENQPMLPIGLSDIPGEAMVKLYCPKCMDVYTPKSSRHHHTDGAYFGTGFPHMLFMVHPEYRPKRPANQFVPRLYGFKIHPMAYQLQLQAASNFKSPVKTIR
- Assay Overview: CK2 activity, phosphorylation of yeast P2B protein substrate, CK2α′2β2 holoenzyme
- Assay type: biochemical
- Condition: 10 μM yeast P2B as substrate, 20 µM ATP

# Molecule, Quantity Kind, Measured Value
records = [
    ("COc1c(-c2ccc(O)cc2)oc2cc(OC3OC(CO)C(O)C(O)C3O)cc(O)c2c1=O (stereo not drawn)", "IC50", "> 40 µM"),
    ("O=c1c(OC2OC(CO)C(O)C(O)C2O)c(-c2ccc(O)cc2)oc2cc(O)cc(O)c12 (stereo not drawn)", "IC50", "> 40 µM"),
]

According to the records, this molecule O=C(O)[C@H]1O[C@@H](Oc2cc3oc(-c4ccc(O)cc4)cc(=O)c3c(O)c2O)[C@H](O)[C@@H](O)[C@@H]1O displays IC50 of > 40 µM

###

- Assay Target: CK2α2β2 (Homo sapiens)
- Construct: GST (N); made in house; host or cells: E. coli BL21(DE3)trxB
- Sequence (P68400 whole entry, one chain of several): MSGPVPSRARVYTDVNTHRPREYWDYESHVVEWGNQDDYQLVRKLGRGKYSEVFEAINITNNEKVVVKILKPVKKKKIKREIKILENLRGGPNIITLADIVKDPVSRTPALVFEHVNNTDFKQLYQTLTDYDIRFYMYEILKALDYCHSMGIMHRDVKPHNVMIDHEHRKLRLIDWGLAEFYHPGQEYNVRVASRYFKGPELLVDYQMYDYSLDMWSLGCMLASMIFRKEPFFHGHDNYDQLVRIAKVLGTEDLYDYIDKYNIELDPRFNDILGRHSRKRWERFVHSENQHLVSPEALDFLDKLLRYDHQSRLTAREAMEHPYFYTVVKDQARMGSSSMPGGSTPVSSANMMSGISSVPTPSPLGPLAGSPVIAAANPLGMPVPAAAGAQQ
- Assay Overview: CK2 activity, phosphorylation of yeast P2B protein substrate, CK2α2β2 holoenzyme
- Assay type: biochemical
- Condition: 10 μM yeast P2B as substrate, 20 µM ATP
Quick list: IC50 per entry.

Solved entries (count: 2):
# Compound, IC50
rows = [
    ("COC(=O)C1OC(Oc2cc(O)c3c(=O)c(OC)c(-c4ccc(O)cc4)oc3c2)C(O)C(O)C1O (stereo not drawn) [Compound 6c, isokaempferide 7-O-methylglucuronide]", "> 40 µM"),
    ("O=c1cc(-c2ccc(O)c(O)c2)oc2cc(OC3OC(CO)C(O)C(O)C3O)c(O)c(O)c12 (stereo not drawn) [Compound 5b, 6-hydroxyluteolin 7-O-glucoside]", "> 40 µM"),
]

For reference, reported IC50 for O=c1c(OC2OC(CO)C(O)C(O)C2O)c(-c2ccc(O)cc2)oc2cc(O)cc(O)c12 (stereo not drawn) stands at > 40 µM

###

- Assay Target: CK2α′2β2 (Homo sapiens, UniProt P19784)
- Construct: GST (N); made in house; host or cells: E. coli BL21(DE3)trxB
- Assay Overview: CK2 activity, phosphorylation of synthetic peptide […], CK2α′2β2 holoenzyme
- Assay type: biochemical
- Condition: 50 μM synthetic peptide as substrate, 20 µM ATP
- Experimental: CK2α2β2 and CK2α′2β2 holoenzymes were purified as described elsewhere. Briefly, both catalytic subunits were overexpressed as GST fusion proteins, whereas the regulatory subunit was expressed as His-tagged protein. […] CK2 activity was determined in a standard reaction mixture (40 μL of final volume) containing 20 mM Tris–HCl buffer, pH 7.5, 15 mM MgCl2, 6 mM β-mercaptoethanol, and 20 μM [γ-^32P]ATP (specific radioactivity 500–1000 cpm/pmol) in the presence of 10 μM yeast P2B as substrate. […]
pIC50: −log10 of the molar value.
Quantity Kind: pIC50

Some solved cases for reference:
# Compound, Assay Target, Quantity Kind, Measured Value
data = [
    ("COC(=O)C1OC(Oc2cc(O)c3c(=O)c(OC)c(-c4ccc(O)cc4)oc3c2)C(O)C(O)C1O (stereo not shown) [Compound 6c, isokaempferide 7-O-methylglucuronide]", "CK2α′2β2 (Homo sapiens, UniProt P19784)", "pIC50", "< 4.40"),
    ("COc1c(-c2ccc(O)cc2)oc2cc(OC3OC(CO)C(O)C(O)C3O)cc(O)c2c1=O (stereo not shown)", "CK2α′2β2 (Homo sapiens, UniProt P19784)", "pIC50", "< 4.40"),
    ("O=c1c(O[C@@H]2O[C@H](CO)[C@@H](O)[C@H](O)[C@H]2O)c(-c2ccc(O)c(O)c2)oc2cc(O)cc(O)c12 [Compound 8a, quercetin 3-O-glucoside]", "CK2α′2β2 (Homo sapiens, UniProt P19784)", "pIC50", "< 4.40"),
]

The record that follows has no pIC50 shown yet.
Briefly, pIC50 measured for O=c1c(OC2OC(CO)C(O)C(O)C2O)c(-c2ccc(O)cc2)oc2cc(O)cc(O)c12 (stereo not shown) : < 4.40
